Target: EPHB2 (UniProt P29323)
Sequence (P29323 whole entry, looked up): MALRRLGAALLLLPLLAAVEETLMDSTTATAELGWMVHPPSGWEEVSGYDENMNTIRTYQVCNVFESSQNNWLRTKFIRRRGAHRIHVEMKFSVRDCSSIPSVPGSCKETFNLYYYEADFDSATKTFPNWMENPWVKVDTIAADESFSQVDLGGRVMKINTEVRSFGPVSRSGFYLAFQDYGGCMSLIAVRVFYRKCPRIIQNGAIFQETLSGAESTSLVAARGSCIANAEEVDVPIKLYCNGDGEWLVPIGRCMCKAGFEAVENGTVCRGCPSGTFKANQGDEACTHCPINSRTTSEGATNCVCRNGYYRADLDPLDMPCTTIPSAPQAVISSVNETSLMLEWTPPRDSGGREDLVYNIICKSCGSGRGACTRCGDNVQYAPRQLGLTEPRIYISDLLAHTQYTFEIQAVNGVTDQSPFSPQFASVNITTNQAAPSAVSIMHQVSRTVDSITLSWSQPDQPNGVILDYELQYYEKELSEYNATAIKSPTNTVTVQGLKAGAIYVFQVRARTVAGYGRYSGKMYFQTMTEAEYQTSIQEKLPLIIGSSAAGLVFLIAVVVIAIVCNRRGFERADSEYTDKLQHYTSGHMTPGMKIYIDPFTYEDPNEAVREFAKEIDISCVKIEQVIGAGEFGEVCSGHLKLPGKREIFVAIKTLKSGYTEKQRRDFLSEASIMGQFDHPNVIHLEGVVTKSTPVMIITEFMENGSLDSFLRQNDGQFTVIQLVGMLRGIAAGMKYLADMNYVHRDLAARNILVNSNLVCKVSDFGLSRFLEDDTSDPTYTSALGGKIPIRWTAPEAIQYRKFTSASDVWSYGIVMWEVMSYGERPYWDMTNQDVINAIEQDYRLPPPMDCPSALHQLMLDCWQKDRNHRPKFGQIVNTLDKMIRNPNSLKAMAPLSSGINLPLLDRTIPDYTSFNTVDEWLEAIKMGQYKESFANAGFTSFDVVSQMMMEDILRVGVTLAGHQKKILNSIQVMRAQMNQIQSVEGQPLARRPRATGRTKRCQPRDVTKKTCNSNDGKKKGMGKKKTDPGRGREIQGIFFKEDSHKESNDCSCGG
Test: phosphorylation enrichment, bacterial display (enrichment ratio); higher = better substrate or ligand; peptides without Tyr show the background;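 further: 11-residue human phosphosite peptides and single-mutation variants displayed on the E. coli surface, counted by deep sequencing, each peptide's frequency after selection divided by its frequency in the unselected input library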;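 further: frequency after pTyr selection over input frequency; kinase dosed for 20-30% of maximal phosphorylation in three min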
# label = bin(measured phosphorylation enrichment), where bins are low (below 0.6), mid (0.6 to below 0.7), high (0.7 or more)

// bin(item) where item = GEDPIYVTLEG [RTKtide_2018]
high

// bin(item) where item = VGEGPYLLSDL [ABCC12_Y7_I9L]
low

// bin(item) where item = VNFDYYTVNLG [GFPT1_Y367_D366Y]
high

// bin(item) where item = KYACSYTPVKA [FLNB_Y708_T703K]
low

// bin(item) where item = GHLFAYDWIRI [BEST1_Y227_S231R_YF]
mid

// bin(item) where item = TKAEKYVNKAK [PLCG1_Y991]
low

// bin(item) where item = FRPPFYHRNCM [HGD_Y334_YF]
low

// bin(item) where item = LLILEYAKYGS [RET_Y806_V804L]
mid

// bin(item) where item = ARLEYCENEKK [IRS1_Y47_Y47C]
low

// bin(item) where item = GSESDYIVMPN [SCARB1_Y133]
high

// bin(item) where item = VLTSKYRGGGG [HBA1_Y141]
low

// bin(item) where item = IGEVVYQRAAM [GRIN2A_Y502_V506A]
low

// bin(item) where item = YCIDHYLGKEM [G6PD_Y202_R198C]
low

// bin(item) where item = SSVAGYACLAY [MVD_Y131_A128V]
low

// bin(item) where item = IIEDPYYGNDF [ACP1_Y132_S137F]
mid

// bin(item) where item = LKGQVYILGLE [ASS1_Y359_R363L]
mid

// bin(item) where item = LGIDRYHAIVF [NPSR1_Y147_S143G_YF]
high

// bin(item) where item = KKCTRYIDCDR [ASPA_Y64_L69R]
low

// bin(item) where item = AVIADYMFWLG [SPATA16_Y290_M286V]
high

// bin(item) where item = KACKHYLTKRT [ZBTB5_Y118_T121K]
mid

// bin(item) where item = NFYEYYVDDPP [GCHFR_Y48]
high

// bin(item) where item = GVRFTYTIDGS [DCX_Y105_I104T_YF]
mid

// bin(item) where item = LKETGYVVERP [BCLAF1_Y466]
low

---

Target: MERTK (UniProt Q12866)
Sequence (Q12866 whole entry, looked up): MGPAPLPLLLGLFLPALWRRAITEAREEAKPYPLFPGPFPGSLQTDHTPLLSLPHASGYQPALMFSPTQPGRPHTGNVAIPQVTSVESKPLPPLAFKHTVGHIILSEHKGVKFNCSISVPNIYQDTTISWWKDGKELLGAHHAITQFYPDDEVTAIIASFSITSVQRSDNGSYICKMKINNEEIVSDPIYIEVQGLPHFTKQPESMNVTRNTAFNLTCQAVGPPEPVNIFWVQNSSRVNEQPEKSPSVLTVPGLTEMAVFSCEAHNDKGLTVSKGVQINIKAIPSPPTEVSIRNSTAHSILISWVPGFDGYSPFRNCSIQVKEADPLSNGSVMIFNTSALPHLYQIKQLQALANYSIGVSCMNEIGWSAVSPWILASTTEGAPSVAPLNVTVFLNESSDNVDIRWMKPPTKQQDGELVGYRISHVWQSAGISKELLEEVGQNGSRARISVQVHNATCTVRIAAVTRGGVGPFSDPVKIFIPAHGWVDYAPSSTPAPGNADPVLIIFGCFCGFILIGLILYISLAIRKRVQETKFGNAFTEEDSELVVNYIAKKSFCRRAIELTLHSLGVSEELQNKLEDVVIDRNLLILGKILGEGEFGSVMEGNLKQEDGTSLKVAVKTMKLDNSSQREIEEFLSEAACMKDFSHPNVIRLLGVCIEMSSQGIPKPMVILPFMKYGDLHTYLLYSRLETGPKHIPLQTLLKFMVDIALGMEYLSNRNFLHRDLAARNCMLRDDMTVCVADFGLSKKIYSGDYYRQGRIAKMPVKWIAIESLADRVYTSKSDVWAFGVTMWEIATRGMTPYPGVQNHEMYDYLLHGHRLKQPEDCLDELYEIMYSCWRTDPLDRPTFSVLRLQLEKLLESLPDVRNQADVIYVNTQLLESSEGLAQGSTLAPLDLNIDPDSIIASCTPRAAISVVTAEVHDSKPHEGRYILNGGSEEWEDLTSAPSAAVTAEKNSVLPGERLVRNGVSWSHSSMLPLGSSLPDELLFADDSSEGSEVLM
Assay: phosphorylation enrichment, bacterial display (enrichment ratio); higher = better substrate or ligand; peptides without Tyr show the background
Would you please tag the item class 1 when its phosphorylation enrichment is 0.5 or above, and class 0 when it is below?

Check if phosphorylation enrichment >= 0.5 (inclusive). Item: REIIAYQPYGK [PRKCG_Y529_P524R]
class 0

Check if phosphorylation enrichment >= 0.5 (inclusive). Item: LDLPGYCPLRE [CCDC116_Y291]
class 1

Check if phosphorylation enrichment >= 0.5 (inclusive). Item: EREFKYGAHKF [OAT_Y50_N54K_YF]
class 0

Check if phosphorylation enrichment >= 0.5 (inclusive). Item: VDGSVYELHPS [GCK_Y413_K414E]
class 1

Check if phosphorylation enrichment >= 0.5 (inclusive). Item: GHEFIYVDRMQ [PDGFRB_Y581_P584R_YF]
class 0

Check if phosphorylation enrichment >= 0.5 (inclusive). Item: EILLSYPRTGY [TGM1_Y365_L366P]
class 0

Check if phosphorylation enrichment >= 0.5 (inclusive). Item: DRQASYLDKVR [KRT16_Y131_L128Q]
class 0

Check if phosphorylation enrichment >= 0.5 (inclusive). Item: VPLLEYFWDIF [CDAN1_Y712_R714W_YF]
class 0

Check if phosphorylation enrichment >= 0.5 (inclusive). Item: SIKDKYVTAFF [KCNH2_Y611_L615F_YF]
class 0

Check if phosphorylation enrichment >= 0.5 (inclusive). Item: EPTPGYEVSQR [TSC2_Y1788_G1791S]
class 0

Check if phosphorylation enrichment >= 0.5 (inclusive). Item: DLAGRYYALRS [CKB_Y173_K177R]
class 1

Check if phosphorylation enrichment >= 0.5 (inclusive). Item: TKLKDYYIFNK [CCDC42_Y149_A144T]
class 1
